target: Nuclear receptor subfamily 1 group D member 1 (Homo sapiens) (UniProt P20393); assay: modulators of Rev-erb alpha DNA binding, dose response, biochemical, FITC-DNA, fluorescence polarization (AID 1259321)
Sequence (P20393 whole entry, looked up): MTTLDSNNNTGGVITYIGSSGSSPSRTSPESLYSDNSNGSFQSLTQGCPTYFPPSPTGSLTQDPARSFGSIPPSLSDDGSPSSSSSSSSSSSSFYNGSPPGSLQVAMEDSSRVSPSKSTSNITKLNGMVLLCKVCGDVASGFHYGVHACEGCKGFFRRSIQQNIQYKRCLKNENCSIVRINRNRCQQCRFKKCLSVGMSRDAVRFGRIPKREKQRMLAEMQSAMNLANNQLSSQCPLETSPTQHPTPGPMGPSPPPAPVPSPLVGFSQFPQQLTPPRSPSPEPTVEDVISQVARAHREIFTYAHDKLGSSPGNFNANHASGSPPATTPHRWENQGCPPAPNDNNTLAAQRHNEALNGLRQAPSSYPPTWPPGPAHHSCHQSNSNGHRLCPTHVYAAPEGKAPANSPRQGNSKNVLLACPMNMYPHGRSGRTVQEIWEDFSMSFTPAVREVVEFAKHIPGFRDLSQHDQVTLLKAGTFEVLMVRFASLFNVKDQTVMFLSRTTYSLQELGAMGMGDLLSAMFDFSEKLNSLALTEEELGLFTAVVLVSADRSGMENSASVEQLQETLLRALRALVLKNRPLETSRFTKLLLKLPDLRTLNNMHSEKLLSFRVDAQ
The source made the active and inactive calls.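 How the source made its calls: active means half-maximal concentration for changing protein binding to DNA, from the fitted dose curve, below 10 micromolar; inactive means the rest.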
Pick from active, inactive when you respond.

COc1ccc(CNC(=O)C2CCC(CNS(=O)(=O)c3cccc4nsnc34)CC2)cc1 (centres undefined) = active
CCN(CC)c1ccc(/C=C(\C#N)C(=O)c2ccc(Br)cc2)cc1 = inactive
O=c1c2ccccc2nc2sc3ccccc3n12 = inactive
CC(C)NC(=O)CSc1nc(-c2cccs2)cc(-c2ccccc2)c1C#N = active
N#Cc1cnc2cc(-c3ccccc3)nn2c1N = active
O=C1c2cccc3c(N4CCCCC4)ccc(c23)C(=O)N1c1ccccc1O = active

Enquiry: How did this test come out for CCSC1=N/C(=C\C=C2/Oc3ccccc3N2CC)C(=O)S1 ?
Return: active

Enquiry: How did this test come out for CCOC(=O)N1CCC(n2c(SCC(=O)c3ccccc3)nc3ccsc3c2=O)CC1 ?
Return: active

Enquiry: How did this test come out for CNc1ccc2c3c(cccc13)C(=O)N(C)C2=O ?
Return: active

Enquiry: How did this test come out for N#Cc1c(N)nc(SCC(=O)C23CC4CC(CC(C4)C2)C3)c(C#N)c1-c1ccc(Cl)cc1 ?
Return: inactive

Enquiry: How did this test come out for CC1(Cc2ccccc2OC(F)(F)F)C(=O)Nc2ccc(OC(F)(F)F)cc21 (centres undefined) ?
Return: active

Enquiry: How did this test come out for Cc1cc(C)c2nc(SCC(=O)N3CC(=O)Nc4ccccc43)c(C#N)cc2c1 ?
Return: active

Enquiry: How did this test come out for Cc1ccc(-n2c(N)c(C#N)c(-c3ccc(Cl)cc3)c(C#N)c2=O)cc1 ?
Return: active

Enquiry: How did this test come out for Cc1cc(-c2csc3nc[nH]c(=S)c23)cc(C)c1C ?
Return: active

Enquiry: How did this test come out for COc1ccccc1-c1nc(SCC(=O)N(C)c2ccccc2)c2c(=O)n(C)c(=O)n(C)c2n1 ?
Return: active

Enquiry: How did this test come out for COc1ccc(-c2nc3c4ccccc4ccn3c2C=O)cc1 ?
Return: inactive

Enquiry: How did this test come out for CN1C(=O)c2ccc(C(=O)Nc3ccc(Br)cn3)cc2C1=O ?
Return: inactive

---

target: Nuclear receptor subfamily 1 group D member 1 (Homo sapiens); assay: modulators of Rev-erb alpha DNA binding, dose response, biochemical, FITC-DNA, fluorescence polarization (AID 1259321)
The source made the active and inactive calls.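 Rule for the calls: active = half-maximal concentration for changing protein binding to DNA, from the fitted dose curve, below 10 micromolar; inactive = the rest.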
Pick from t for active, f for inactive when you respond.

Solved cases below.
O=C(Nc1ccc2oc(-c3cccc(F)c3)nc2c1)c1ccccc1F = t
CCN(CC)C(=O)Cn1c(C)c(/C=C/c2cc[n+](C)cc2)c2ccccc21 = t
N#Cc1c(-c2cccs2)cc(C2CC2)nc1SCC(N)=O = t

Enquiry: How did this test come out for COc1ccc2cc(C3CC(c4cccs4)=NN3C(C)=O)c(Cl)nc2c1 (stereo not given) ?
Return: t

Enquiry: How did this test come out for Cc1nc(NCCc2ccc(Cl)cc2)c2nnn(Cc3ccccc3)c2n1 ?
Return: t

Enquiry: How did this test come out for Brc1ccc(-c2nn3c(-c4ccccc4)nnc3s2)cc1 ?
Return: f

---

target: Nuclear receptor subfamily 1 group D member 1 (Homo sapiens); experiment: modulators of Rev-erb alpha DNA binding, dose response, biochemical, FITC-DNA, fluorescence polarization (AID 1259321)
Activity calls are given as the source filed them.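 Rule for the calls: active = half-maximal concentration for changing protein binding to DNA, from the fitted dose curve, below 10 micromolar; inactive = the rest.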
quantity: IC50

Use the examples below as a reference point.
CCOC(=O)c1c(-c2ccccc2)csc1NC(=O)c1cc(S(=O)(=O)N2CCOCC2)ccc1C = 4.51 µM
CCSc1nnc(-c2ccc(Cl)cc2)c2ccccc12 = 7.11 µM
COc1ccccc1N=Nc1c(O)[nH]c(=S)[nH]c1=O = > 40 µM (inactive)
CCc1nc2ccccc2c(C(=O)OCc2nc3ccccc3c(=O)[nH]2)c1C = > 40 µM (inactive)
CC(C)c1nc2sc3c(SCC(N)=O)ncnc3c2c2c1CCC2 = 3.43 µM

Tested system Nuclear receptor subfamily 1 group D member 1 (Homo sapiens); IC50 recorded for CCC(C)(C)c1ccc(OCCCC[n+]2ccc(C)cc2)c(C(C)(C)CC)c1 was > 40 µM (inactive)

Tested system Nuclear receptor subfamily 1 group D member 1 (Homo sapiens); IC50 recorded for C/C(=N\NC(=O)COc1cccc(C)c1)c1ccc2ccccc2c1O was 7.63 µM

Tested system Nuclear receptor subfamily 1 group D member 1 (Homo sapiens); IC50 recorded for O=c1c2ccccc2n2c(-c3ccc(F)cc3)nnc2n1Cc1ccccc1 was inactive

Tested system Nuclear receptor subfamily 1 group D member 1 (Homo sapiens); IC50 recorded for O=C(Nc1nnc(C2CCCCC2)s1)c1ccc(Br)s1 was inactive

Tested system Nuclear receptor subfamily 1 group D member 1 (Homo sapiens); IC50 recorded for COc1ccc(C#Cc2ccc(C3=CC(=O)CC(C)(C)C3=O)cc2)cc1 was 0.472 µM

Tested system Nuclear receptor subfamily 1 group D member 1 (Homo sapiens); IC50 recorded for O=C(Cn1cc(C(F)(F)F)cc(Cl)c1=O)NCc1ccc(Cl)cc1Cl was inactive

---

molecular target: Nuclear receptor subfamily 1 group D member 1 (Homo sapiens) (UniProt P20393); assay: modulators of Rev-erb alpha DNA binding, dose response, biochemical, FITC-DNA, fluorescence polarization (AID 1259321)
Calls of active or inactive are those of the source.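 The calls were made as follows: active = half-maximal concentration for changing protein binding to DNA, from the fitted dose curve, below 10 micromolar; inactive = the rest.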
Pick from active, inactive when you respond.

Solved cases below.
CC1(Cc2ccccc2C#N)C(=O)Nc2ccc(-c3ccccc3)cc21 (stereo unspecified) = active
CCCCN1C(=O)/C(=C/C=C2\SCCN2C)SC1=S = active
CN1C(=O)c2cc(NS(=O)(=O)c3ccc(F)cc3)ccc2OC[C@H]2O[C@@H](CC(=O)NCC(F)(F)F)CC[C@@H]21 = active
Cc1ccc(C(=O)Nc2nc3ccccc3c(=O)s2)cc1 = active
CCn1c(=O)cc(SCC(=O)Nc2ccc(Cl)cc2)c2ccccc21 = active

Enquiry: How did this test come out for CN(C)c1ccc(C=C2SC(=S)NC2=O)cc1 ?
Return: inactive

Enquiry: How did this test come out for CCc1cccc(NC(=O)c2ccc(Cn3c(=O)[nH]c4ccsc4c3=O)cc2)c1 ?
Return: inactive

Enquiry: How did this test come out for CCOC(=O)c1sc(NC(=O)c2ccc(S(=O)(=O)N(C)C)cc2)nc1C ?
Return: inactive

---

molecular target: Nuclear receptor subfamily 1 group D member 1 (Homo sapiens); assay: modulators of Rev-erb alpha DNA binding, dose response, biochemical, FITC-DNA, fluorescence polarization (AID 1259321)
Active and inactive are the calls of the source.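 How the source made its calls: active means half-maximal concentration for changing protein binding to DNA, from the fitted dose curve, below 10 micromolar; inactive means the rest.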
quantity: IC50

CCOc1ccc(-c2nnc3ccc(SCC(=O)Nc4nc5ccc(C)cc5s4)nn23)cc1 = 7.12 µM
CCCOc1ccc(C(=O)Nc2nc(C)c(Cc3ccc4c(c3)OCO4)s2)cc1 = inactive
CCCCN(C)C1=CC2=CC(=C(C#N)C#N)CCC2CC1 (stereo unspecified) = > 40 µM (inactive)
Fc1cccc2sc(Nc3nc4c(F)cccc4s3)nc12 = 4.6 µM
N#Cc1ccsc1NC(=O)COC(=O)c1cc(Br)ccc1O = inactive
Cc1cc(NC(=O)CSc2nc3c(C)cccc3cc2C#N)no1 = > 40 µM (inactive)
CCNC(=O)Nc1ccc2c(c1)C(=O)N(C)[C@H]1CC[C@H](CC(=O)N[C@H](C)c3ccccc3)O[C@@H]1CO2 = inactive
Cc1ccc2cc(C#N)c(SCC(=O)N3CCCc4ccccc43)nc2c1 = 6.5 µM
CC(=O)c1sc(NC(=O)COc2ccc(Br)cc2)nc1C = 4.41 µM
Cc1ccc2cc(C#N)c(SCC(=O)NNC(=O)Cc3ccccc3)nc2c1 = 4.25 µM

Now examine the next entry.
Entry Cc1c(C#N)c(N)nc2c3c(sc12)NC(=O)CC3c1ccc(Cl)cc1 (stereo unspecified) ; IC50 = > 40 µM (inactive)

---

molecular target: Nuclear receptor subfamily 1 group D member 1 (Homo sapiens) (UniProt P20393); experiment: modulators of Rev-erb alpha DNA binding, dose response, biochemical, FITC-DNA, fluorescence polarization (AID 1259321)
Activity calls are given as the source filed them.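 Rule for the calls: active = half-maximal concentration for changing protein binding to DNA, from the fitted dose curve, below 10 micromolar; inactive = the rest.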
Pick from label 1 = active, label 0 = inactive when you respond.

Solved cases below.
CN(c1ccc(O)cc1)c1ccc([N+](=O)[O-])c2nonc12 = label 1
COc1cccc(CNC(=O)CCCn2c(=S)[nH]c3cc4c(cc3c2=O)OCO4)c1 = label 1
Cc1cc(-c2nnc3sc(-c4ccc(Cl)cc4Cl)nn23)n[nH]1 = label 0
Cc1c(Cl)cc(C(C)C)c(O)c1CN1CCOCC1 = label 0
O=c1sc(N2CCN(c3ccc(F)cc3)CC2)nc2ccsc12 = label 0

Enquiry: How did this test come out for Cc1nonc1NC(=O)CSc1nc2c(C)cccc2cc1C#N ?
Return: label 0

---

biological target: UniProtKB P20393; assay: modulators of Rev-erb alpha DNA binding, dose response, biochemical, FITC-DNA, fluorescence polarization (AID 1259321)
Active and inactive are the calls of the source.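 Rule for the calls: active = half-maximal concentration for changing protein binding to DNA, from the fitted dose curve, below 10 micromolar; inactive = the rest.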
Pick from true = active, false = inactive when you respond.

Solved cases below.
COc1ccc(Cl)cc1C(=O)Nc1cccc(-c2ccc3nncn3n2)c1 = true
CC(C)c1ccc(-c2c(C#N)c(N)nc(SCC(=O)N3CCCCC3)c2C#N)cc1 = true

Could you now look at the following molecule, please?
Enquiry: How did this test come out for O=c1ccc(-c2ccc(S(=O)(=O)N3CCN(c4ccccc4)CC3)o2)n[nH]1 ?
Return: false
